# TARGET: FLT3 (Homo sapiens)
# Construct: host or cells: Sf9 insect cells (baculovirus)
# Sequence (P36888 27-993): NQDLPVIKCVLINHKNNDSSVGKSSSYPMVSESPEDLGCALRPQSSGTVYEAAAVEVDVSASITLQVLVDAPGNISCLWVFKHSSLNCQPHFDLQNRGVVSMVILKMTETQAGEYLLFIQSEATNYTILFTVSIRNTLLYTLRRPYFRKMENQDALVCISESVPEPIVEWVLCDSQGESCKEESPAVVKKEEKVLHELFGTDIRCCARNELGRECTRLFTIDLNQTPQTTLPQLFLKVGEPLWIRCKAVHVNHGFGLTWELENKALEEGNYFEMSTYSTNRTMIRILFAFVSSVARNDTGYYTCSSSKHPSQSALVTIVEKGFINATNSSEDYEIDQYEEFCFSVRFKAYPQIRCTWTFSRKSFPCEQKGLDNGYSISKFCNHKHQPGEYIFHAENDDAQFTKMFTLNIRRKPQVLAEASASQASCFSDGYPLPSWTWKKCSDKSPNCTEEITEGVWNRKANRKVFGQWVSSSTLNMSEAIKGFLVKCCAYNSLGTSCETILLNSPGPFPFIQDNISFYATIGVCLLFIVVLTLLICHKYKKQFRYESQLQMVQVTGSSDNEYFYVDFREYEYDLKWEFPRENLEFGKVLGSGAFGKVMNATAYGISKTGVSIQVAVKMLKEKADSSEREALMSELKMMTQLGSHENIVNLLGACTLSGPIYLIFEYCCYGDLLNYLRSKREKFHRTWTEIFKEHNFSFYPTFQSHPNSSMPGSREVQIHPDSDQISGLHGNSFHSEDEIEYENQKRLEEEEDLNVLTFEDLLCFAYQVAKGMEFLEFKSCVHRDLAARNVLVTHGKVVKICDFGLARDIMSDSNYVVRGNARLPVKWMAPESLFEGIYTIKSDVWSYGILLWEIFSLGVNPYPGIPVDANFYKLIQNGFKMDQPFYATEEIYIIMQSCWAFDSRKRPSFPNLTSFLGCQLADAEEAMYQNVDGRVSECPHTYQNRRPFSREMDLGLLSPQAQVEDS
# PROTOCOL NOTES: Radiometric protein kinase assay, FLT3
# Format: biochemical
# CONDITION SET: 1 μM ATP; read-out: Inhibitory activity (IC50:μM) FLT3
# Description: All protein kinases were expressed in Sf9 insect cells as human recombinant GST-fusion proteins or His-tagged proteins by means of the baculovirus expression system. Kinases were purified by affinity chromatography using either GSH-agarose (Sigma) or Ni-NTH-agarose (Qiagen). […] The reaction cocktails were incubated at 30° C. for 80 minutes. […] Incorporation of ^33Pi was determined with a microplate scintillation counter (Microbeta Trilux, Wallac). […]
QUANTITY MEASURED: IC50
Field: value (include unit after the number)

Write down IC50 measured for item O=C1Cc2c(Cl)c(O)cc(O)c2C(=O)O[C@H](c2ccccc2)C/C=C/CCC(Cl)C1 (stereo partly shown)
23 µM

Write down IC50 measured for item COC1CC/C=C/C[C@H](c2ccccc2)OC(=O)c2c(O)cc(O)c(Cl)c2CC(=O)C1 (stereo partly shown)
23 µM

Write down IC50 measured for item O=C1/C=C/CCC2OC2C[C@@H](Cc2ccccc2)OC(=O)c2c(O)cc(O)cc2C1 (stereo partly shown)
44 µM

Write down IC50 measured for item CC(C)[C@@H]1CC2OC2CC/C=C/C(=O)Cc2c(Cl)c(O)cc(O)c2C(=O)O1 (stereo partly shown)
45 µM

====

# TARGET: IGF1-R (Homo sapiens, UniProt P08069)
# Construct: host or cells: Sf9 insect cells (baculovirus)
# Sequence (P08069 31-1367): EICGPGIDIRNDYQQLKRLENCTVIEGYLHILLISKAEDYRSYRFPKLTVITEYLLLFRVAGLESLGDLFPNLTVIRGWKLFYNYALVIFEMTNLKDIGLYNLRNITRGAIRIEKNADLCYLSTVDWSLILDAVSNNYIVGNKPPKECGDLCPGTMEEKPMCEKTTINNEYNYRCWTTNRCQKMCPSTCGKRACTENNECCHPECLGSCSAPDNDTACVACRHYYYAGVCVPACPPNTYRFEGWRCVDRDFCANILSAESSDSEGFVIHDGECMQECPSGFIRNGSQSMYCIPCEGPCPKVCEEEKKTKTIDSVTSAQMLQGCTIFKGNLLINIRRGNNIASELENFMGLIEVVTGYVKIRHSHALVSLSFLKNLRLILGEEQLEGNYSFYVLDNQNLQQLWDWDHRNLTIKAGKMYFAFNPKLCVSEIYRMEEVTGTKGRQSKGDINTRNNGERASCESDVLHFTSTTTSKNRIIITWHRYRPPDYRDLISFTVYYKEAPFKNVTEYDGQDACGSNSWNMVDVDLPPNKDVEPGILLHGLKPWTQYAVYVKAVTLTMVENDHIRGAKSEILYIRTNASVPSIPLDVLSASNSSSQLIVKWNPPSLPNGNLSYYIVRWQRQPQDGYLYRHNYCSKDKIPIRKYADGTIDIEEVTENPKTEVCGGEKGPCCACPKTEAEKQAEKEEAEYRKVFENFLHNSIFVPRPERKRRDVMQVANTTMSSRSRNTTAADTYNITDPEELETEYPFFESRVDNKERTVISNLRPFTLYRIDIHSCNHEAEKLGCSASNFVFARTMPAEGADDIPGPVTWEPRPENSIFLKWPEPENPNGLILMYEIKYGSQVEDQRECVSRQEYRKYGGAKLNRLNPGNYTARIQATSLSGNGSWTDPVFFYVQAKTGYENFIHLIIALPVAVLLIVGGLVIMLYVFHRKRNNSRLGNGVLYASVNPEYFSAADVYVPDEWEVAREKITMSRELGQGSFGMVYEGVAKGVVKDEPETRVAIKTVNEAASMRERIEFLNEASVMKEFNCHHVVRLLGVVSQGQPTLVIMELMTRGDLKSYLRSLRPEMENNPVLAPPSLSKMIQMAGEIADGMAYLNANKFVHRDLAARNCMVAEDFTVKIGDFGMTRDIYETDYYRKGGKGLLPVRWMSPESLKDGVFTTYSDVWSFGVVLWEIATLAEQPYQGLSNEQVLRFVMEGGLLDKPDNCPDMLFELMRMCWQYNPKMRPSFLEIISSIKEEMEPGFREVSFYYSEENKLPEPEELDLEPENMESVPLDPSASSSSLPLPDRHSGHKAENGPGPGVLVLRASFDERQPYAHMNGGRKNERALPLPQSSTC
# PROTOCOL NOTES: Radiometric protein kinase assay, IGF1-R
# Assay type: biochemical
# CONDITION SET: 1 μM ATP; read-out: Inhibitory activity (IC50:μM) IGF1-R
QUANTITY MEASURED: IC50 (µM)
Numbers only here, please. The scale is µM.

Fill: IC50 (IGF1-R (Homo sapiens, UniProt P08069)) for this compound COC1CC/C=C/C[C@H](c2ccccc2)OC(=O)c2c(O)cc(O)c(Cl)c2CC(=O)C1 (stereo partly drawn)
16

Fill: IC50 (IGF1-R (Homo sapiens, UniProt P08069)) for this compound O=C1/C=C/CCC2OC2C[C@@H](Cc2ccccc2)OC(=O)c2c(O)cc(O)cc2C1 (stereo partly drawn)
21

Fill: IC50 (IGF1-R (Homo sapiens, UniProt P08069)) for this compound O=C1Cc2c(Cl)c(O)cc(O)c2C(=O)O[C@H](c2ccccc2)C/C=C/CCC(Cl)C1 (stereo partly drawn)
19

Fill: IC50 (IGF1-R (Homo sapiens, UniProt P08069)) for this compound CC(C)[C@@H]1CC2OC2CC/C=C/C(=O)Cc2c(Cl)c(O)cc(O)c2C(=O)O1 (stereo partly drawn)
13

Fill: IC50 (IGF1-R (Homo sapiens, UniProt P08069)) for this compound `CCOCOc1cc2c(c(OCOCC)c1)C(=O)O[C@H](c1ccccc1)C/C=C/CC/C=C/C(=O)C2`
23

Fill: IC50 (IGF1-R (Homo sapiens, UniProt P08069)) for this compound O=C1/C=C/CCC2OC2C[C@H](c2ccccc2)OC(=O)c2c(O)cc(O)c(Cl)c2C1 (stereo partly drawn)
11

====

# TARGET: CDK4/CycD1 (Homo sapiens, UniProt P11802)
# Construct: host or cells: Sf9 insect cells (baculovirus)
# Sequence (P11802 whole entry): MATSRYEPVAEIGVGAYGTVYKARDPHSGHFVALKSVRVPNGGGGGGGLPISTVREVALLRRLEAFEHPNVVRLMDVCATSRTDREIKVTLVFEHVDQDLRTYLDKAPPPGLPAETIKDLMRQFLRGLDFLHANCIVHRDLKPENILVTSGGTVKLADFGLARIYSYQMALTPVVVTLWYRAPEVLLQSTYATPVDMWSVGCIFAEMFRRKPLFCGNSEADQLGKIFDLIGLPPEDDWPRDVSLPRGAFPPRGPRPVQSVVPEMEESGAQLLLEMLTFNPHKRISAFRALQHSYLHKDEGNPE
# Sequence (P24385 whole entry partner): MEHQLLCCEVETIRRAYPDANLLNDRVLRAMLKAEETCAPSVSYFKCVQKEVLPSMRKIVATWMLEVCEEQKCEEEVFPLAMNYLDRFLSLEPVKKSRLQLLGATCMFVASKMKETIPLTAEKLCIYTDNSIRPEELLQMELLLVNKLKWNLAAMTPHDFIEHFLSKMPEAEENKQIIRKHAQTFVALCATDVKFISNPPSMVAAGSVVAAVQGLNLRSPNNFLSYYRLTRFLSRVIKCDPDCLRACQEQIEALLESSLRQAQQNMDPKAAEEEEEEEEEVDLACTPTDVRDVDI
# PROTOCOL NOTES: Radiometric protein kinase assay, CDK4/CycD1
# Format: biochemical
# CONDITION SET: 1 μM ATP; read-out: Inhibitory activity (IC50:μM) CDK4/CycD1
Exercise: for every item that follows, state its recorded IC50.
Numbers only here, please. The scale is µM.

Write down IC50 measured for item O=C1/C=C/CCC2OC2C[C@H](c2ccccc2)OC(=O)c2c(O)cc(O)c(Cl)c2C1 (some centres unmarked)
45

Write down IC50 measured for item COC1CC/C=C/C[C@H](c2ccccc2)OC(=O)c2c(O)cc(O)c(Cl)c2CC(=O)C1 (some centres unmarked)
50

Write down IC50 measured for item CC(C)[C@@H]1CC2OC2CC/C=C/C(=O)Cc2c(Cl)c(O)cc(O)c2C(=O)O1 (some centres unmarked)
48

Write down IC50 measured for item O=C1Cc2c(Cl)c(O)cc(O)c2C(=O)O[C@H](c2ccccc2)C/C=C/CCC(Cl)C1 (some centres unmarked)
30

Write down IC50 measured for item O=C1/C=C/CCC2OC2C[C@@H](Cc2ccccc2)OC(=O)c2c(O)cc(O)cc2C1 (some centres unmarked)
37

====

# TARGET: SRC (Homo sapiens, UniProt P12931)
# Construct: host or cells: Sf9 insect cells (baculovirus)
# Sequence (P12931 whole entry): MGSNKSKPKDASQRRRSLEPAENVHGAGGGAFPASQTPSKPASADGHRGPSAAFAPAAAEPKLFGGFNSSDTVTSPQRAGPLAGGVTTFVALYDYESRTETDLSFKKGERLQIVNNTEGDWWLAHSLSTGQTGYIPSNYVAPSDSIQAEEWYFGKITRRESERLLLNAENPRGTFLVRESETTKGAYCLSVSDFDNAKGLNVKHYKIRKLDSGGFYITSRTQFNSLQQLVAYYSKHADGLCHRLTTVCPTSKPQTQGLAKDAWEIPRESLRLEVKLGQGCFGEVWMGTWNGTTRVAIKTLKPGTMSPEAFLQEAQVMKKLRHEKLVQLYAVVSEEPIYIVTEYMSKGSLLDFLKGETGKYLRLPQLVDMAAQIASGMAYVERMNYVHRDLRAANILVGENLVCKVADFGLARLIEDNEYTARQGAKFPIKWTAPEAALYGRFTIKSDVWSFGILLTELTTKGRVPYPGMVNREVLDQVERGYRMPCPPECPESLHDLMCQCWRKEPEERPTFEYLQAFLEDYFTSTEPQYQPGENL
# PROTOCOL NOTES: Radiometric protein kinase assay, SRC
# Format: biochemical
# CONDITION SET: 1 μM ATP; read-out: Inhibitory activity (IC50:μM) SRC
# Procedure: All protein kinases were expressed in Sf9 insect cells as human recombinant GST-fusion proteins or His-tagged proteins by means of the baculovirus expression system. Kinases were purified by affinity chromatography using either GSH-agarose (Sigma) or Ni-NTH-agarose (Qiagen). […] The reaction cocktails were incubated at 30° C. for 80 minutes. […] Incorporation of ^33Pi was determined with a microplate scintillation counter (Microbeta Trilux, Wallac). […]
Exercise: for every item that follows, state its recorded IC50.
Numbers only here, please. The scale is µM.

Write down IC50 measured for item CC(C)[C@@H]1CC2OC2CC/C=C/C(=O)Cc2c(Cl)c(O)cc(O)c2C(=O)O1 (stereo partly drawn)
12

Write down IC50 measured for item O=C1Cc2c(Cl)c(O)cc(O)c2C(=O)O[C@H](c2ccccc2)C/C=C/CCC(Cl)C1 (stereo partly drawn)
14

Write down IC50 measured for item O=C1/C=C/CCC2OC2C[C@@H](Cc2ccccc2)OC(=O)c2c(O)cc(O)cc2C1 (stereo partly drawn)
20

Write down IC50 measured for item `CCOCOc1cc2c(c(OCOCC)c1)C(=O)O[C@H](c1ccccc1)C/C=C/CC/C=C/C(=O)C2`
11

Write down IC50 measured for item O=C1/C=C/CCC2OC2C[C@H](c2ccccc2)OC(=O)c2c(O)cc(O)c(Cl)c2C1 (stereo partly drawn)
12

Write down IC50 measured for item COC1CC/C=C/C[C@H](c2ccccc2)OC(=O)c2c(O)cc(O)c(Cl)c2CC(=O)C1 (stereo partly drawn)
8

====

Exercise: for every item that follows, state its recorded IC50.
# TARGET: SAK (Homo sapiens)
# Construct: host or cells: Sf9 insect cells (baculovirus)
# Sequence (O00444 whole entry): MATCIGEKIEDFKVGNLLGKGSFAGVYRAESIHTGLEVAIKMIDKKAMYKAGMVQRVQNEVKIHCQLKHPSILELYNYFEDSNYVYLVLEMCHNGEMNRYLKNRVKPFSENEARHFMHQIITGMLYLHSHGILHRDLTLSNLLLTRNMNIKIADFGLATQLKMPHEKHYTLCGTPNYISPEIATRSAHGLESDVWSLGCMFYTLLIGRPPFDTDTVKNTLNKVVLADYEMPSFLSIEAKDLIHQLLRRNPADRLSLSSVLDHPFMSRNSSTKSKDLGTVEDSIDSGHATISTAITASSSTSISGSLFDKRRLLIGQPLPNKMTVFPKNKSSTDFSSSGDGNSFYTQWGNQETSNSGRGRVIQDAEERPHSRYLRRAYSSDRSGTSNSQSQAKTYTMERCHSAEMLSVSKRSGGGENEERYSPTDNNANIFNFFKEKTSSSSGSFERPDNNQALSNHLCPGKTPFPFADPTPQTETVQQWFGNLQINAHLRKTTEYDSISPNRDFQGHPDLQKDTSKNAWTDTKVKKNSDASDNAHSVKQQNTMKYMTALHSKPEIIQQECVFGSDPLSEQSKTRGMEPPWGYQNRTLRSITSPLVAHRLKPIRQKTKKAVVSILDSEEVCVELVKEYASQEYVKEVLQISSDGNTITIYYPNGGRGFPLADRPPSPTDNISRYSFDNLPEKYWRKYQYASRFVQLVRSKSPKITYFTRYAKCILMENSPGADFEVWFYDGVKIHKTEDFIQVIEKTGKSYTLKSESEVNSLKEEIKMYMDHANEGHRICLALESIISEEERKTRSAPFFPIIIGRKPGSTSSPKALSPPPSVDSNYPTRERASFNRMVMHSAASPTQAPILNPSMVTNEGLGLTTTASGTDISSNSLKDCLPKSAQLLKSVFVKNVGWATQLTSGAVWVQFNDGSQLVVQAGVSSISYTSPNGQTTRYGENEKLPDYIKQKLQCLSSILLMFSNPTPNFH
# PROTOCOL NOTES: Radiometric protein kinase assay, SAK
# Assay type: biochemical
# CONDITION SET: 1 μM ATP; read-out: Inhibitory activity (IC50:μM) SAK
Numbers only here, please. The scale is µM.

Write down IC50 measured for item O=C1/C=C/CCC2OC2C[C@@H](Cc2ccccc2)OC(=O)c2c(O)cc(O)cc2C1 (some centres unmarked) [A-6]
17

Write down IC50 measured for item O=C1/C=C/CCC2OC2C[C@H](c2ccccc2)OC(=O)c2c(O)cc(O)c(Cl)c2C1 (some centres unmarked) [A-5]
20

Write down IC50 measured for item CC(C)[C@@H]1CC2OC2CC/C=C/C(=O)Cc2c(Cl)c(O)cc(O)c2C(=O)O1 (some centres unmarked) [A-4]
19

Write down IC50 measured for item O=C1Cc2c(Cl)c(O)cc(O)c2C(=O)O[C@H](c2ccccc2)C/C=C/CCC(Cl)C1 (some centres unmarked) [A-3]
25

Write down IC50 measured for item COC1CC/C=C/C[C@H](c2ccccc2)OC(=O)c2c(O)cc(O)c(Cl)c2CC(=O)C1 (some centres unmarked) [A-2]
17

====

# TARGET: Aurora-A (Homo sapiens)
# Construct: host or cells: Sf9 insect cells (baculovirus)
# Sequence (O14965 whole entry): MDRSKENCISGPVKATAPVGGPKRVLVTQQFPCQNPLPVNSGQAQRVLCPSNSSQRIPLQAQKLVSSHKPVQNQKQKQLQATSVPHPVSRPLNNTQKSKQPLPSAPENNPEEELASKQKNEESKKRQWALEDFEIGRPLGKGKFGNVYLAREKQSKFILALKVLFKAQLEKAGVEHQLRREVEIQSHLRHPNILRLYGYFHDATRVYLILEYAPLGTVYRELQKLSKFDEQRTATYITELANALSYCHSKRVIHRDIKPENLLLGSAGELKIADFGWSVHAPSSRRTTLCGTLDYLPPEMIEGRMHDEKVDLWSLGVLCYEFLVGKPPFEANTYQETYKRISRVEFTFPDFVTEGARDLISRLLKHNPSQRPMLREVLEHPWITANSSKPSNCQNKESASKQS
# PROTOCOL NOTES: Radiometric protein kinase assay, Aurora-A
# Type: biochemical
# CONDITION SET: 1 μM ATP; read-out: Inhibitory activity (IC50:μM) Aurora-A
QUANTITY MEASURED: IC50 (µM)
Numbers only here, please. The scale is µM.

Write down IC50 measured for item O=C1/C=C/CCC2OC2C[C@H](c2ccccc2)OC(=O)c2c(O)cc(O)c(Cl)c2C1 (stereo partly shown)
47

Write down IC50 measured for item CC(C)[C@@H]1CC2OC2CC/C=C/C(=O)Cc2c(Cl)c(O)cc(O)c2C(=O)O1 (stereo partly shown)
30

Write down IC50 measured for item O=C1Cc2c(Cl)c(O)cc(O)c2C(=O)O[C@H](c2ccccc2)C/C=C/CCC(Cl)C1 (stereo partly shown)
12

Write down IC50 measured for item COC1CC/C=C/C[C@H](c2ccccc2)OC(=O)c2c(O)cc(O)c(Cl)c2CC(=O)C1 (stereo partly shown)
14

====

# System: ErbB2
# PROTOCOL NOTES: Degradation of HSP90 client protein ErbB2 in SK-BR3, Western blotting
# Assay type: cell-based
# CONDITION SET: Homo sapiens, SK-BR-3, 18 h, read-out: IC50, degradation of ErbB2
QUANTITY MEASURED: IC50 (nM)
Numbers only here, please. The scale is nM.

Write down IC50 measured for item `C[C@@H]1C[C@H]2O[C@@H]2/C=C\C=C\C(=O)Cc2c(Cl)c(O)cc(O)c2C(=O)O1`
289
